Test: Visual (apparent) solubility assessment in re-crystallization solvents
Format: physicochemical
Conditions: 20 °C, organic solvent or mixture, thermodynamic from solid; IPAC, visual, 20-25° C.; read-out: Estimated solubility
Procedure: Prior to launching the slurry experiments, an “apparent solubility” is determined in all ageing media. To do so, to accurately weighed small amounts of 2-(4-chlorobenzylamino)-4-(4-tert-butylaminopiperidin-1-yl)-quinoline, aliquots of each solvent are successively added until complete dissolution is observed. The corresponding solubility S is then estimated.
Readout Name: solubility

                              sample_smiles        result
0  CC(C)(C)NC1CCN(c2cc(NCc3ccc(Cl)cc3)nc3ccccc23)CC1  > 15.2 mg/mL

----------
Test: Visual (apparent) solubility assessment in re-crystallization solvents
Assay type: physicochemical
Conditions: 20 °C, organic solvent or mixture, thermodynamic from solid; Propanol-1, visual, 20-25° C.; read-out: Estimated solubility
Description: Prior to launching the slurry experiments, an “apparent solubility” is determined in all ageing media. To do so, to accurately weighed small amounts of 2-(4-chlorobenzylamino)-4-(4-tert-butylaminopiperidin-1-yl)-quinoline, aliquots of each solvent are successively added until complete dissolution is observed. The corresponding solubility S is then estimated.
Readout Name: solubility

                              sample_smiles        result
0  CC(C)(C)NC1CCN(c2cc(NCc3ccc(Cl)cc3)nc3ccccc23)CC1  > 15.1 mg/mL

----------
assay: Visual (apparent) solubility assessment in re-crystallization solvents; type: physicochemical; details: 20 °C, organic solvent or mixture, thermodynamic from solid; MEK, visual, 20-25° C.; read-out: Estimated solubility
Readout Name: solubility

In [3]: df
Out[3]:
                              sample_smiles        result
0  CC(C)(C)NC1CCN(c2cc(NCc3ccc(Cl)cc3)nc3ccccc23)CC1  > 2400 µg/mL

----------
assay: Visual (apparent) solubility assessment in re-crystallization solvents; format: physicochemical; details: 20 °C, organic solvent or mixture, thermodynamic from solid; IPA, visual, 20-25° C.; read-out: Estimated solubility
Readout Name: solubility

                              sample_smiles        result
0  CC(C)(C)NC1CCN(c2cc(NCc3ccc(Cl)cc3)nc3ccccc23)CC1  > 2600 µg/mL
